Recorded values, source patent EP0226508A1.

# T/C % listing for each entry below
Tested on: leucémie L 1210
METHOD_NOTES: In vivo antitumour activity, L 1210 leukemia test
Parameters: species or system souris hybrides CDF₁
STUDY_CONDITIONS: L 1210, CDF₁ mice, 5 mg/kg i.p. J1-J5
ASSAY_READOUT: T/C %

> print(dat)
                                   compound  assay.readout  value.reported
1  CCN(CC)CCCNc1nc2ccccc2c2c1c1cc(O)ccc1n2C [Dérivé N°3]          T/C %            129%
2  CCN(CC)CCCNc1nc2ccccc2c2[nH]c3ccc(O)cc3c12 [Dérivé N°11]          T/C %            160%
3  CN(C)CCCNc1nc2ccccc2c2c1c1cc(O)ccc1n2C [Dérivé N°4]          T/C %            158%
4  Oc1ccc2[nH]c3c4ccccc4nc(NCCCN4CCCCC4)c3c2c1 [Dérivé N°16]          T/C %            126%

---

System: lignée tumorale leucémie L 1210
METHOD_NOTES: In vitro cytotoxic activity on L 1210 leukemia cell culture (inhibition of cell proliferation)
Type: cell-based
STUDY_CONDITIONS: Mus musculus, L1210; L 1210 culture in exponential growth, 37°C, after 48 hours of contact; read-out: ID 50 (the source's name)
pIC50: −log10 of the molar value.
Could you label it True if measured pIC50 is 6 or higher, and False otherwise?

> print(dat)
                                         mol              experimental.target    cat
 1  CCN(CC)CCCNc1nc2ccccc2c2c1c1cc(O)ccc1n2C  lignée tumorale leucémie L 1210   True
 2  CCN(CC)CCCNc1nc2ccccc2c2c1c1cc(OC)ccc1n2C  lignée tumorale leucémie L 1210   True
 3  CN(C)CCCNc1nc2ccccc2c2[nH]c3ccc(O)cc3c12  lignée tumorale leucémie L 1210   True
 4  COc1ccc2[nH]c3c4ccccc4nc(NCCCN4CCOCC4)c3c2c1  lignée tumorale leucémie L 1210   True
 5   CCNCCCNc1nc2ccccc2c2[nH]c3ccc(OC)cc3c12  lignée tumorale leucémie L 1210   True
 6  CCN(CC)CCCNc1nc2ccccc2c2[nH]c3ccc(O)cc3c12  lignée tumorale leucémie L 1210   True
 7  CCN(CC)CCNc1nc2ccccc2c2[nH]c3ccc(O)cc3c12  lignée tumorale leucémie L 1210  False
 8  CCN(CC)CCNc1nc2ccccc2c2[nH]c3ccc(OC)cc3c12  lignée tumorale leucémie L 1210  False
 9  Oc1ccc2[nH]c3c4ccccc4nc(NCCCN4CCCCC4)c3c2c1  lignée tumorale leucémie L 1210   True
10    CN(C)CCCNc1nc2ccccc2c2c1c1cc(O)ccc1n2C  lignée tumorale leucémie L 1210   True
11  COc1ccc2[nH]c3c4ccccc4nc(NCCCN4CCCCC4)c3c2c1  lignée tumorale leucémie L 1210   True
12  Oc1ccc2[nH]c3c4ccccc4nc(NCCCN4CCOCC4)c3c2c1  lignée tumorale leucémie L 1210   True
13  COc1ccc2c(c1)c1c(NCCCN(C)C)nc3ccccc3c1n2C  lignée tumorale leucémie L 1210   True
